# reported pIC50; entries follow
- System name: HCV polymerase 1A (Δ21 NS5B, H77) (Hepatitis C virus genotype 1a, UniProt P27958)
- Construct: 20 to 50 nM Δ21 NS5B
- Sequence (P27958 2421-2990, stated change not applied): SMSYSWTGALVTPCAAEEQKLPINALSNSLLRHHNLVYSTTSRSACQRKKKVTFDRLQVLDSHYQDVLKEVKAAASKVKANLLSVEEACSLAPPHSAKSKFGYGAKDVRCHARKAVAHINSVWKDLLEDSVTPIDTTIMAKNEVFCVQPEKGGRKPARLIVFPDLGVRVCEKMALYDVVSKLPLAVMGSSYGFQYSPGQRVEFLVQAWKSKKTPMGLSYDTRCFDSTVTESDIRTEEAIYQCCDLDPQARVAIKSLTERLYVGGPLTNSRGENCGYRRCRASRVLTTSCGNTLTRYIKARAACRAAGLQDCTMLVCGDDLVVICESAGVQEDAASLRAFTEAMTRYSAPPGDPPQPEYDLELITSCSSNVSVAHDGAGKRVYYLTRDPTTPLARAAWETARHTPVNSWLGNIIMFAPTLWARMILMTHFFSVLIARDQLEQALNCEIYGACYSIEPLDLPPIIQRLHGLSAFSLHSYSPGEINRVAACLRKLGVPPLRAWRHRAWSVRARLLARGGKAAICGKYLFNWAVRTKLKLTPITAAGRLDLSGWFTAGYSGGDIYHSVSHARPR
- Experiment summary: biochemical
- Experimental parameters: IC50 1a
pIC50: −log10 of the molar value.
Outcome measure: pIC50

• COc1c(-c2ccc3c(c2)CCC3(C)CNS(C)(=O)=O)cc(-n2ccc(=O)[nH]c2=O)cc1C(C)(C)C (stereo not drawn) [IB-L0-2.25] = 7.00 to 8.00
• COc1c(NC(=O)c2ccc(NS(C)(=O)=O)cc2)cc(N2CCC(=O)NC2=O)cc1C(C)(C)C [IA-L4-1.9] = 7.00 to 8.00
• COc1c(C#Cc2cnc(NS(C)(=O)=O)cn2)cc(-n2ccc(=O)[nH]c2=O)cc1C(C)(C)C [IB-L2-1.9] = 6.00 to 7.00
• CC(C)(C)c1cc(N2CCC(=O)NC2=O)cc(C(=O)Nc2ccccc2S(N)(=O)=O)c1O [IA-L3-1.22] = 6.00 to 7.00
• CC(C)(C)c1cc(N2CCC(=O)NC2=O)cc(C(=O)Nc2ccc(OCC#N)cc2)c1O [IA-L3-1.17] = < 6.00
• CCc1cc(N2CCC(=O)NC2=O)cc(C(=O)Nc2ccc(NS(C)(=O)=O)cc2)c1OC [IA-L3-1.112] = 6.00 to 7.00
• COc1c(C(=O)Nc2ccc(NS(C)(=O)=O)cc2)cc(-n2ccc(=O)[nH]c2=O)cc1C(C)(C)C [IB-L3-1.1] = 7.00 to 8.00
• CC(C)(C)c1cc(C(=O)Nc2ccc(NS(C)(=O)=O)cc2)cc(N2CCC(=O)NC2=O)c1 [IA-L3-1.105] = 6.00 to 7.00
• CC(C)(C)OC(=O)N(Cc1csc(NC(=O)c2cc(N3CCC(=O)NC3=O)cc(C(C)(C)C)c2O)c1)S(C)(=O)=O [IA-L3-1.98] = < 6.00
• CC(C)(C)c1cc(N2CCC(=O)NC2=O)cc(CN2CCC[C@@H](O)C2)c1O [IA-L5-1-1.6, trifluoroacetic acid] = < 6.00
• CN(C(=O)c1cc(N2CCC(=O)NC2=O)cc(C(C)(C)C)c1O)c1ccccc1 [IA-L3-1.1] = < 6.00
• CC(C)(C)c1cc(N2CCC(=O)NC2=O)cc(C(=O)Nc2ccc(NS(C)(=O)=O)cc2)c1O [IA-L3-1.6] = 7.00 to 8.00
• C=CCN(c1ccc(NC(=O)c2cc(N3CCC(=O)NC3=O)cc(C(C)(C)C)c2OC)cc1)S(C)(=O)=O [IA-L3-1.108] = < 6.00
• COc1c(C(=O)Nc2cc(CNS(C)(=O)=O)cs2)cc(N2CCC(=O)NC2=O)cc1C(C)(C)C [IA-L3-1.94] = 6.00 to 7.00
• COc1c(-c2ccc3c(c2)CC=C3CNS(C)(=O)=O)cc(-n2ccc(=O)[nH]c2=O)cc1C(C)(C)C [IB-L0-2.13] = > 8.00
